Target or system UniProtKB Q64640; metric pIC50; compiled from varied reports.
pIC50: −log10 of the molar value.
measurementKind: pIC50

Answered cases to consult:
compound: COc1ccc(-c2c(-c3ccc(N(C)C)cc3)nc3ncnc(N)c3c2-c2cccc(Br)c2)cc1OC
pIC50: 8.51
--
compound: C[C@H]1O[C@@H](Nc2ncnc(N)c2[N+](=O)[O-])[C@H](O)[C@@H]1O
pIC50: 5.40
--
compound: CN(Cc1ccccc1Cl)Cc1c(N)ncnc1C#Cc1ccc(N2CCOCC2)nc1
pIC50: 8.30
--
compound: Nc1ncnc(C#Cc2ccc(N3CCOCC3)nc2)c1CCCc1ccc(Br)cc1
pIC50: 8.70
--
compound: CN(Cc1cccc(Br)c1)c1c(N)ncnc1C#Cc1ccc(N2CCOCC2)nc1
pIC50: 8.30

1 = CN(C)c1ccc(-c2nc3ncnc(N)c3c(-c3cccc(Cl)c3)c2-c2ccccc2)cn1
2 = CN(Cc1ccccc1C(F)(F)F)c1c(N)ncnc1C#Cc1ccc(N2CCOCC2)nc1
3 = Nc1ncnc2nc(-c3ccc(N4CCOCC4)cc3)cnc12
Please produce an ascending ranking of these molecules based on pIC50. Give me the labels in the order the question wants. 3, 2, 1

A = CN(Cc1ccc(Br)cc1)c1c(N)ncnc1C#Cc1ccc(N2CCOCC2)nc1
B = COc1ccc(-c2cnc3c(N)ncnc3n2)cc1
Name the one with the greater pIC50 value, either A or B as given. Write the label of whichever entry you select. A
(A: 7.05, B: 5.70)

a = COc1ccc(-c2cc3c(N)ncnc3nc2-c2ccc(N(C)C)cc2)cc1
b = CN(Cc1ccccc1)c1c(N)ncnc1C#Cc1ccc(N2CCOCC2)nc1
c = Nc1ncnc(C#Cc2ccc(N3CCOCC3)nc2)c1CCCc1ccccc1
d = Cc1ccccc1CN(C)c1c(N)ncnc1C#Cc1ccc(N2CCOCC2)nc1
e = Nc1ncnc2nc(-c3ccc([N+](=O)[O-])cc3)cnc12
With regard to pIC50, arrange the entries in ascending order, please. Form entry: labels listed in requested order. e, a, b, d, c

1 = Nc1cc(C#Cc2ccc(N3CCOCC3)nc2)ncn1
2 = COC(=O)c1c(N)ncnc1N[C@@H]1O[C@H](CN)[C@@H](O)[C@H]1O
3 = COC(=O)c1cncnc1N[C@@H]1O[C@H](CN)[C@@H](O)[C@H]1O
4 = COC(=O)c1cccc(-c2cc3c(N)ncnc3nc2-c2ccc(N(C)C)cc2)c1
Put the items in order so that reported pIC50 rises from first to last. Respond with the label ranking, as requested. 1, 4, 3, 2

I = CN(C)c1ccc(-c2nc3ncnc(N)c3cc2-c2ccc(C(C)(C)C)cc2)cc1
II = Nc1ncnc(C#Cc2ccc(N3CCOCC3)nc2)c1Cc1ccccc1
III = NC[C@H]1O[C@@H](n2cnc3c(N)ncnc32)[C@H](O)[C@@H]1O
Rank by pIC50 (largest to smallest). Write the labels, ordered according to the request. III, II, I

I = CN(C)c1ccc(-c2cnc3c(N)ncnc3n2)cc1
II = Nc1ncnc2nc(-c3ccc(N4CCOCC4)nc3)c(-c3ccc(F)cc3)c(-c3cccc(Br)c3)c12
Short answer wanted: higher pIC50, I or II ? Please respond with the label that marks your chosen entry. II
(II: 8.30, I: 6.36)

I = Nc1ncnc(C#Cc2ccc(N3CCOCC3)nc2)c1CCc1ccccc1
II = Nc1ncnc2nc(-c3ccc(N4CCOCC4)nc3)c(Cc3ccccc3)c(-c3cccc(Br)c3)c12
III = CN(C)c1ccc(-c2nc3ncnc(N)c3c(-c3cccc(Br)c3)c2C2CCCCC2)cn1
IV = CN(Cc1cccc(Cl)c1)c1c(N)ncnc1C#Cc1ccc(N2CCOCC2)nc1
V = COC(=O)c1cncnc1N[C@@H]1O[C@H](CO)[C@@H](O)[C@H]1O
Sort the 5 molecules by pIC50; largest first, smallest last. Ranked list of labels, please, in the requested order. I, IV, II, III, V

a = CN(C)c1ccc(-c2nc3ncnc(N)c3c(-c3ccccc3)c2-c2ccccc2)cn1
b = CN(Cc1ccccc1Cl)c1c(N)ncnc1C#Cc1ccc(N2CCOCC2)nc1
Lab note: check whether a or b has the lower measured pIC50. Respond with the label that goes with your answer. b

====

Here is a set of compounds with reported IC50 for Adenosine kinase (Rattus norvegicus, UniProt Q64640), compiled from the literature.
measurementKind: IC50 (nM)

P = CN(C)c1ccc(-c2c(-c3ccc(N4CCOCC4)nc3)nc3ncnc(N)c3c2-c2cccc(Cl)c2)cc1
Q = CC(C)c1c(-c2ccc(N3CCOCC3)nc2)nc2ncnc(N)c2c1-c1cccc(Br)c1
R = CN(Cc1ccccc1)Cc1c(N)ncnc1C#Cc1ccc(N2CCOCC2)nc1
S = CN(C)c1ccc(-c2nc3ncnc(N)c3nc2-c2ccccc2)cc1
Sort the listed compounds above so the one with the largest IC50 comes first and the smallest comes last. I'd appreciate it if you listed the labels in the requested order. Q, P, S, R

====

Compiled record: pIC50 values for Adenosine kinase (Rattus norvegicus) across several sources.
pIC50: −log10 of the molar value.
measurementKind: pIC50

Here are 3 molecules together with their reported answers.
compound: Nc1ncnc2nc(-c3ccccc3)cnc12
pIC50: 5.26
//
compound: C[C@H]1O[C@@H](n2cc(-c3ccccc3)c3c(Nc4ccc(F)cc4)ncnc32)[C@H](O)[C@@H]1O
pIC50: 8.55
//
compound: CN(Cc1ccc(Cl)c(Cl)c1)c1c(N)ncnc1C#Cc1ccc(N2CCOCC2)nc1
pIC50: 6.70

A = CN(C)c1ccc(-c2cc(C3CCCCC3)c3c(N)ncnc3n2)cc1
B = Cc1ccc(-c2cc3c(N)ncnc3nc2-c2ccc(N(C)C)cc2)cc1
C = COc1ccc(CCCc2c(N)ncnc2C#Cc2ccc(N3CCOCC3)nc2)cc1
Place the items in sequence of falling pIC50. Your task in answering is to list the labels in the requested order. C, A, B

I = Nc1ncnc(C#Cc2ccc(N3CCOCC3)nc2)c1CCCc1ccncc1
II = Nc1ncnc2nc(-c3cccs3)c(-c3ccccc3)c(-c3ccccc3)c12
Endpoint returns whichever of I and II has the numerically higher pIC50. API: response body contains the label of the selected item. II
(II: 9.26, I: 8.40)
